- Measurement protocol: Pharmacokinetics assay in rats
- Format: in vivo
- Test conditions: rat; male Sprague-Dawley rats, po, 5 mg/kg, plasma; read-out: Cmax/C0
For each record, write down the corresponding Cmax.
Answers are plain numbers, in ng/mL.

>  <Sample smiles>
COc1cc(CN2CCN(C3CC4(CCN(c5ccc(C(=O)NS(=O)(=O)c6cnc(NC[C@H]7CC[C@](C)(O)CC7)c([N+](=O)[O-])c6)c(Oc6cc7c(F)c[nH]c7nc6OC)c5)CC4)C3)[C@H](c3ccccc3C(C)C)C2)ccn1

>  <Endpoint>
Cmax

>  <Reported value>
272

$$$$

Could you now consider this next compound?
Prompt line: // Cmax lookup, key: COc1cc(CN2CCN(C3CC4(CCN(c5ccc(C(=O)NS(=O)(=O)c6cnc(NC[C@H]7CC[C@](C)(O)CC7)c([N+](=O)[O-])c6)c(Oc6cc7c(F)c[nH]c7nc6OC)c5)CC4)C3)[C@H](c3ccccc3C(C)C)C2)ccc1C1CC1
Response line: 37.1

---

- Measurement protocol: Pharmacokinetics assay in rats
- Assay type: in vivo
- Test conditions: rat; male Sprague-Dawley rats, po, 5 mg/kg, plasma
For each record, write down the corresponding AUC(0-t).

Study these solved cases before continuing.
>  <Compound>
COc1nc2[nH]cc(F)c2cc1Oc1cc(N2CCC3(CC2)CC(N2CCN(Cc4ccc(OC(F)F)cc4)C[C@H]2c2ccccc2C(C)C)C3)ccc1C(=O)NS(=O)(=O)c1cnc(NC[C@H]2CC[C@](C)(O)CC2)c([N+](=O)[O-])c1 [Example 344]

>  <AUC(0-t)>
5910 ng·h/mL

$$$$
>  <Compound>
COc1nc2[nH]cc(F)c2cc1Oc1cc(N2CCC3(CC2)CC(N2CCN(Cc4ccc(OC)c5oc(C)cc45)C[C@H]2c2ccccc2C(C)C)C3)ccc1C(=O)NS(=O)(=O)c1cnc(NC[C@H]2CC[C@](C)(O)CC2)c([N+](=O)[O-])c1 [Example 13]

>  <AUC(0-t)>
1890 ng·h/mL

$$$$
>  <Compound>
COc1cc(CN2CCN(C3CC4(CCN(c5ccc(C(=O)NS(=O)(=O)c6cnc(NC[C@H]7CC[C@](C)(O)CC7)c([N+](=O)[O-])c6)c(Oc6cc7c(F)c[nH]c7nc6OC)c5)CC4)C3)[C@H](c3ccccc3C(C)C)C2)ccc1C1CC1 [Example 5]

>  <AUC(0-t)>
2260 ng·h/mL

$$$$

I would be grateful if you could provide AUC(0-t) for each of the following entries.
1. CCOc1nc2[nH]cc(F)c2cc1Oc1cc(N2CCC3(CC2)CC(N2CCN(Cc4ccc(OC)cc4)C[C@H]2c2ccccc2C(C)C)C3)ccc1C(=O)NS(=O)(=O)c1cnc(NC[C@H]2CC[C@](C)(O)CC2)c([N+](=O)[O-])c1 [Example 2]
2. COc1nc2[nH]cc(F)c2cc1Oc1cc(N2CCC3(CC2)CC(N2CCN(Cc4ccc(C5CC5)c(OC)n4)C[C@H]2c2ccccc2C(C)C)C3)ccc1C(=O)NS(=O)(=O)c1cnc(NC[C@H]2CC[C@](C)(O)CC2)c([N+](=O)[O-])c1 [Example 289]
3. COc1nc2[nH]cc(F)c2cc1Oc1cc(N2CCC3(CC2)CC(N2CCN(Cc4ccc(F)c(F)c4)C[C@H]2c2ccccc2C(C)C)C3)ccc1C(=O)NS(=O)(=O)c1cnc(NC[C@H]2CC[C@](C)(O)CC2)c([N+](=O)[O-])c1 [Example 3]
4. COc1cc(CN2CCN(C3CC4(CCN(c5ccc(C(=O)NS(=O)(=O)c6cnc(NC[C@H]7CC[C@](C)(O)CC7)c([N+](=O)[O-])c6)c(Oc6cc7c(F)c[nH]c7nc6OC)c5)CC4)C3)[C@H](c3ccccc3C(C)C)C2)ccn1 [Example 242]
5. COc1nc2[nH]cc(F)c2cc1Oc1cc(N2CCC3(CC2)CC(N2CCN(Cc4ccc(F)cc4)C[C@H]2c2ccccc2C(C)C)C3)ccc1C(=O)NS(=O)(=O)c1cnc(NC[C@H]2CC[C@](C)(O)CC2)c([N+](=O)[O-])c1 [Example 233]

Response line:
1. 1920 ng·h/mL
2. 3450 ng·h/mL
3. 4650 ng·h/mL
4. 2760 ng·h/mL
5. 3920 ng·h/mL

---

- Measurement protocol: Pharmacokinetics assay in rats
- Type: in vivo
- Test conditions: rat; male Sprague-Dawley rats, po, 5 mg/kg, plasma
Endpoint: AUC(0-t) (ng·h/mL)
Numbers only, in ng·h/mL.

>  <Sample smiles>
COc1ccc(CN2CCN(C3CC4(CCN(c5ccc(C(=O)NS(=O)(=O)c6cnc(NC[C@H]7CC[C@](C)(O)CC7)c([N+](=O)[O-])c6)c(Oc6cc7c(F)c[nH]c7nc6OC)c5)CC4)C3)[C@H](c3ccccc3C(C)C)C2)cc1

>  <Unit name>
ng·h/mL

>  <AUC(0-t)>
3030

$$$$
>  <Sample smiles>
COc1nc2[nH]cc(F)c2cc1Oc1cc(N2CCC3(CC2)CC(N2CCN(Cc4ccc(Cl)cc4)C[C@H]2c2ccccc2C(C)C)C3)ccc1C(=O)NS(=O)(=O)c1cnc(NC[C@H]2CC[C@](C)(O)CC2)c([N+](=O)[O-])c1

>  <Unit name>
ng·h/mL

>  <AUC(0-t)>
3750

$$$$

Prompt line: // AUC(0-t) lookup, key: CCOc1nc2[nH]cc(F)c2cc1Oc1cc(N2CCC3(CC2)CC(N2CCN(Cc4ccc(F)c(F)c4)C[C@H]2c2ccccc2C(C)C)C3)ccc1C(=O)NS(=O)(=O)c1cnc(NC[C@H]2CC[C@](C)(O)CC2)c([N+](=O)[O-])c1
Response line: 1740

---

- Test system: RS4;11-BCL-2 G101V cells
- Measurement protocol: Cell proliferation assay (MTS), RS4;11-BCL-2 G101V engineered cells
- Format: cell-based
- Test conditions: Homo sapiens, 120 h, read-out: RS4, 11 BCL2-G101V IC50
For each record, write down the corresponding IC50.
Numbers only, in nM.

Study these solved cases before continuing.
>  <Sample smiles>
COc1nc2[nH]cc(F)c2cc1Oc1cc(N2CCC3(CC2)CC(N2CCN(Cc4ccc(Cl)cc4)C[C@H]2c2ccccc2C(C)C)C3)ccc1C(=O)NS(=O)(=O)c1cnc(NC[C@H]2CC[C@](C)(O)CC2)c([N+](=O)[O-])c1

>  <Reported value>
1

$$$$
>  <Sample smiles>
COc1nc2[nH]cc(F)c2cc1Oc1cc(N2CCC3(CC2)CC(N2CCN(Cc4ccc(C#N)cc4)C[C@H]2c2ccccc2C(C)C)C3)ccc1C(=O)NS(=O)(=O)c1cnc(NC[C@H]2CC[C@](C)(O)CC2)c([N+](=O)[O-])c1

>  <Reported value>
1

$$$$

Could you now consider this next compound?
Prompt line: // IC50 lookup, key: COc1nc2[nH]cc(F)c2cc1Oc1cc(N2CCC3(CC2)CC(N2CCN(Cc4ccc(F)cc4)C[C@H]2c2ccccc2C(C)C)C3)ccc1C(=O)NS(=O)(=O)c1cnc(NC[C@H]2CC[C@](C)(O)CC2)c([N+](=O)[O-])c1
Response line: 1

---

- System: RS4;11-BCL-2 G101V cells
- Measurement protocol: Cell proliferation assay (MTS), RS4;11-BCL-2 G101V engineered cells
- Format: cell-based
- Test conditions: Homo sapiens, 120 h, read-out: RS4, 11 BCL2-G101V IC50
Endpoint: pIC50
One number for each entry, as −log10 of the molar value.

Study these solved cases before continuing.
>  <Molecule>
CCOc1nc2[nH]cc(F)c2cc1Oc1cc(N2CCC3(CC2)CC(N2CCN(Cc4ccc(C5CC5)c(OC)c4)C[C@H]2c2ccccc2C(C)C)C3)ccc1C(=O)NS(=O)(=O)c1cnc(NC[C@H]2CC[C@](C)(O)CC2)c([N+](=O)[O-])c1 [Example 6]

>  <pIC50>
9.00

$$$$
>  <Molecule>
CC(C)c1ccccc1[C@@H]1CN(C[C@H]2COCCO2)CCN1C1CC2(CCN(c3ccc(C(=O)NS(=O)(=O)c4cnc(NC[C@H]5CC[C@](C)(O)CC5)c([N+](=O)[O-])c4)c(Oc4cnc5[nH]cc(F)c5c4)c3)CC2)C1 [Example 330]

>  <pIC50>
9.00

$$$$

I would be grateful if you could provide pIC50 for each of the following entries.
1. COc1cc(CN2CCN(C3CC4(CCN(c5ccc(C(=O)NS(=O)(=O)c6cnc(NC[C@H]7CC[C@](C)(O)CC7)c([N+](=O)[O-])c6)c(Oc6cc7c(F)c[nH]c7nc6OC)c5)CC4)C3)[C@H](c3ccccc3C(C)C)C2)cc(O)n1 [Example 69]
2. COCCN1CCN(C2CC3(CCN(c4ccc(C(=O)NS(=O)(=O)c5cnc(NC[C@H]6CC[C@](C)(O)CC6)c([N+](=O)[O-])c5)c(Oc5cnc6[nH]cc(F)c6c5)c4)CC3)C2)[C@H](c2ccccc2C(C)C)C1 [Example 203]
3. COc1nc2[nH]cc(F)c2cc1Oc1cc(N2CCC3(CC2)CC(N2CCC[C@H]2c2ccccc2C(C)C)C3)ccc1C(=O)NS(=O)(=O)c1cnc(NC[C@H]2CC[C@](C)(O)CC2)c([N+](=O)[O-])c1 [Example 89]
4. COc1ccc(CN2CCN(C3CC4(CCN(c5ccc(C(=O)NS(=O)(=O)c6cnc(NC[C@H]7CC[C@](C)(O)CC7)c([N+](=O)[O-])c6)c(Oc6cc7c(F)c[nH]c7nc6OC)c5)CC4)C3)[C@H](c3ccccc3C(C)C)C2)nc1 [Example 122]
5. COc1ccc(CN2CCN(C3CC4(CCN(c5ccc(C(=O)NS(=O)(=O)c6cnc(NC[C@H]7CC[C@](C)(O)CC7)c([N+](=O)[O-])c6)c(Oc6cnc7[nH]cc(F)c7c6)c5)CC4)C3)[C@H](c3ccccc3C(C)C)C2)c2nc(C)oc12 [Example 244]
6. CC(C)c1ccccc1[C@@H]1CN(C[C@@H]2COCCO2)CCN1C1CC2(CCN(c3ccc(C(=O)NS(=O)(=O)c4cnc(NC[C@H]5CC[C@](C)(O)CC5)c([N+](=O)[O-])c4)c(Oc4cnc5[nH]cc(F)c5c4)c3)CC2)C1 [Example 335]

Response line:
9.00
9.00
9.00
9.00
9.00
9.00
